Data provenance is patent US11142554B2.

study_system: KSBcl-2
protocol_description: receptor | KSBcl-2
attribute_measured: pKd
Give bare numbers, as −log10 of the molar value.

Prompt: Give the reported pKd for RPEIWMTQGLRRLGDEINAYYAR [MS1] (system: KSBcl-2).
Completion: 8.54
